The reported numbers originate from patent US20220324969A1.

system_tested: CD33 (Sino Biological, Cat #12238-H08H) (UniProt P20138 18-259)
Sequence (P20138 18-259 limits assumed): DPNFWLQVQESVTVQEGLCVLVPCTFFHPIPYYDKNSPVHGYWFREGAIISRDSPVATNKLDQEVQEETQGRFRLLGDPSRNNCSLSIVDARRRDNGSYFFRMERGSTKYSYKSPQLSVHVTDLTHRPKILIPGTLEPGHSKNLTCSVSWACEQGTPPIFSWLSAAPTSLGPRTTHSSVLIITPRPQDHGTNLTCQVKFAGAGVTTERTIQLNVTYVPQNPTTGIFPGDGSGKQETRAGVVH
assay_protocol: BLI, IgG captured on anti-human Fc sensor, 50 nM CD33, pH 7.4 vs pH 5.4
parameter: binding result

binder="MYT1214 (antibody, V domains shown, IgG; IMGN779 VH variant #2 (Y27H)) VH: QVQLQQPGAEVVKPGASVKMSCKASGHTFTSYYIHWIKQTPGQGLEWVGVIYPGNDDISYNQKFQGKATLTADKSSTTAYMQLSSLTSEDSAVYYCAREVRLRYFDVWGQGTTVTVSS VL: EIVLTQSPGSLAVSPGERVTMSCKSSQSVFFSSSQKNYLAWYQQIPGQSPRLLIYWASTRESGVPDRFTGSGSGTDFTLTISSVQPEDLAIYYCHQYLSSRTFGQGTKLEIK" parameter="binding result" assay_value=binds
binder="MYT1366 (antibody, V domains shown, IgG; vadastuximab VH variant #32 (E101H)) VH: QVQLVQSGAEVKKPGASVKVSCKASGYTFTNYDINWVRQAPGQGLEWIGWIYPGDGSTKYNEKFKAKATLTADTSTSTAYMELRSLRSDDTAVYYCASGYHDAMDYWGQGTTVTVSS VL: DIQMTQSPSSLSASVGDRVTINCKASQDINSYLSWFQQKPGKAPKTLIYRANRLVDGVPSRFSGSGSGQDYTLTISSLQPEDFATYYCLQYDEFPLTFGGGTKVEIK" parameter="binding result" assay_value=binds
binder="MYT2655 (antibody, V domains shown, IgG; vadastuximab VL variant #3 (S26H)) VH: QVQLVQSGAEVKKPGASVKVSCKASGYTFTNYDINWVRQAPGQGLEWIGWIYPGDGSTKYNEKFKAKATLTADTSTSTAYMELRSLRSDDTAVYYCASGYEDAMDYWGQGTTVTVSS VL: DIQMTQSPSSLSASVGDRVTINCKAHQDINSYLSWFQQKPGKAPKTLIYRANRLVDGVPSRFSGSGSGQDYTLTISSLQPEDFATYYCLQYDEFPLTFGGGTKVEIK" parameter="binding result" assay_value=binds
